experimental-protocol: Dissolution studies involving other materials (time for 20% dissolution)
Assay type: physicochemical
condition-set: in water
metric-name: time to 20% dissolution (min)
// note: answer is a bare numeric in min

C[C@]12CCC(=O)C=C1CC[C@@H]1[C@@H]2CC[C@@]2(C)[C@H]1CC[C@]2(C)O [methyltestosterone] ... 2

Ask: Reported time to 20% dissolution, molecule CC(=O)OCC(=O)[C@@]1(O)CC[C@H]2[C@@H]3CCC4=CC(=O)C=C[C@]4(C)[C@H]3[C@@H](O)C[C@@]21C [prednisolone acetate] : ____
Result: 8
